The measured values listed here are drawn from PubChem BioAssay.

ASSAY_INFO: small-molecule microarray binders of probe aShh, primary screen, biochemical, biotinylated probe, 635/667 nm fluorescence (AID 1114);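 note: probe is biotin-labelled aShh protein from a stem cell growth factor screen; measures binding of labelled protein to compounds printed on the slide; score merges feature fluorescence at 667 nm with signal-to-noise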
EXPERIMENTAL_SETUP: higher = more signal
ENDPOINT_NAME: composite z-score
Please give the numeric answer without any surrounding text.

Quick note, composite z-score for `COCCOC(=O)N1C(=O)[C@@]2(c3cc(C#CCCO)ccc31)[C@H](C(=O)N1CCCCCCC1)[C@H]1C(=O)O[C@H](c3ccccc3)[C@H](c3ccccc3)N1[C@@H]2c1ccc(OCCO)cc1` landed at 0.953

Quick note, composite z-score for CCC(CC)C(O)C1C=CC2C(=O)NC(=O)C2N1Nc1ccc(Cl)cc1Cl (stereo unspecified) landed at 0.234

Quick note, composite z-score for `CCCC#C[Si](O[C@H](CC)c1cn(Cc2cccc(Cl)c2)nn1)(C(C)C)C(C)C` landed at -0.153

Quick note, composite z-score for `O=C(CS)NCCCCCCNC(=O)[C@@H]1C[C@@H]2C(=O)NCC(=O)N2[C@@H]1c1cccc(OCCO)c1` landed at -0.188

Quick note, composite z-score for `COCCOC(=O)N1C(=O)[C@@]2(c3cc(C#CC4(O)CCCCCC4)ccc31)[C@H](c1ccccc1OCCO)N1[C@H](c3ccccc3)[C@H](c3ccccc3)OC(=O)[C@H]1[C@@H]2C(=O)N1CCN(c2ncccn2)CC1` landed at 0.0328

Quick note, composite z-score for C=CC1(C(=O)OC)CC=C(C(=O)OC)CC1 (stereo unspecified) landed at 1.1
